Answer each item with its documented fold by which cyclo SS-octa is more potent than the analog, 125I-NMB binding.
target: rat NMB receptor (Rattus norvegicus); construct: a full length NMB-preferring bombesin receptor clone generated from rat esophagus; expressed in transfected cells; experiment: Binding of 125I-[D-Tyr0]NMB to NMB-R transfected BALB 3T3 cells; settings: NMB-R transfected cells
Sequence (P24053 whole entry): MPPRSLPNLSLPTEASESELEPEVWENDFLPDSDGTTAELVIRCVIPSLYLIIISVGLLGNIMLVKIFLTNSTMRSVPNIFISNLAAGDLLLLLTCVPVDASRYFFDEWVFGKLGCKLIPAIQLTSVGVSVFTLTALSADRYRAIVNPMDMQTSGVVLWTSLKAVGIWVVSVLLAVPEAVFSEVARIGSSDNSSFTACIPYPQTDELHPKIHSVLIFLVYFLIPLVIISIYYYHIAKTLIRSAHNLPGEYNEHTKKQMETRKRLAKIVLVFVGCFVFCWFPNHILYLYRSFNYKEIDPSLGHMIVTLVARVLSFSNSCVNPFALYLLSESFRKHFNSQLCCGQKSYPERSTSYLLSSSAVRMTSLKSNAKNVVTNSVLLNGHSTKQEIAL
Where a SMILES comes first, the peptide text is derived from it. Bridges are numbered along the chain shown (N, C = ends). [ ]: non-standard residue; d: D form. 2Nal = N[C@@H](Cc1ccc2ccccc2c1)C(=O)O; d2Nal = N[C@H](Cc1ccc2ccccc2c1)C(=O)O; Lys(iPr) = CC(C)NCCCC[C@H](N)C(=O)O
Just the number please, in fold, no unit attached.

Fill blank: measured fold by which cyclo SS-octa is more potent than the analog, 125I-NMB binding of the compound `C[C@@H](O)[C@H](NC(=O)[C@@H]1CSSC[C@H](NC(=O)[C@H](N)Cc2ccc3ccccc3c2)C(=O)N[C@@H](Cc2ccc(O)cc2)C(=O)N[C@H](Cc2c[nH]c3ccccc23)C(=O)N[C@@H](CCCCN)C(=O)N[C@@H]([C@@H](C)O)C(=O)N1)C(N)=O` is ____.
69

Fill blank: measured fold by which cyclo SS-octa is more potent than the analog, 125I-NMB binding of the compound CC(C)[C@@H]1NC(=O)[C@H](Cc2c[nH]cn2)NC(=O)[C@@H](Cc2c[nH]c3ccccc23)NC(=O)[C@H](Cc2ccc(O)cc2)NC(=O)[C@@H](NC(=O)[C@H](N)Cc2ccc3ccccc3c2)CSSC[C@@H](C(=O)N[C@@H](Cc2ccc3ccccc3c2)C(N)=O)NC1=O [Analog #14] (H-[d2Nal]CY[dW]HVC[2Nal]-NH2; disulfide 2-7; N-terminus assumed) is ____.
45

Fill blank: measured fold by which cyclo SS-octa is more potent than the analog, 125I-NMB binding of the compound CC(C)NCCCC[C@@H]1NC(=O)[C@@H](Cc2c[nH]c3ccccc23)NC(=O)[C@H](Cc2ccc(O)cc2)NC(=O)[C@@H](NC(=O)[C@H](N)Cc2ccccc2)CSSC[C@@H](C(=O)N[C@@H](Cc2ccc3ccccc3c2)C(N)=O)NC(=O)[C@H]([C@@H](C)O)NC1=O [Analog #15] (H-[dF]CY[dW][Lys(iPr)]TC[2Nal]-NH2; disulfide 2-7) is ____.
9
